Reference source: patent US9018208B2

- Test system: SH-SY5Y M-currents (KCNQ2, KCNQ3 and KCNQ5)
- TEST_METHOD_NOTES: SH-SY5Y native cell line FLIPR assay (voltage-sensitive dye DiBAC)
- Format: cell-based, mouse neuroblastoma, rat glioma hybrid cell line
- CONDITION_DETAILS: FLIPR assay, SH-SY5Y native cell line; Table 2; read-out: SH-SY5Y EC50
pEC50: −log10 of the molar value.
Record form. Attribute: pEC50. Fill in for each entry.

// pEC50 lookup, molecule = CC(C)C(C)C(=O)Nc1nc2ccc(F)cn2c1-c1ccc(F)cc1 (stereo not drawn) , result: 5.52 to 6.30

// pEC50 lookup, molecule = CC(C)(C)CC(=O)Nc1nc2ccc(F)cn2c1-c1ccc(C#N)cc1 , result: 5.52 to 6.30

// pEC50 lookup, molecule = C#CCCCC(=O)Nc1nc2ccc(F)cn2c1-c1ccc(F)cc1 , result: 5.52 to 6.30

// pEC50 lookup, molecule = O=C(Cc1ccccc1)Nc1nc2cc(C(F)(F)F)ccn2c1-c1ccccc1 , result: 5.52 to 6.30

// pEC50 lookup, molecule = O=C(CC1CCCC1)Nc1nc2ccc(F)cn2c1-c1ccc(C(F)(F)F)cc1 , result: > 6.30

// pEC50 lookup, molecule = O=C(CC1CCC1)Nc1nc2ccc(F)cn2c1-c1ccc(OC(F)(F)F)cc1 , result: > 6.30

// pEC50 lookup, molecule = Cc1c(F)ccc(-c2c(NC(=O)CC(C)(C)C)nc3ccc(F)cn23)c1F , result: 5.52 to 6.30

// pEC50 lookup, molecule = CC(C(=O)Nc1nc2ccc(F)cn2c1-c1ccc(F)cc1)c1ccccc1 (stereo not drawn) , result: 5.52 to 6.30

// pEC50 lookup, molecule = Cc1ccn2c(-c3ccc(F)cc3)c(NC(=O)Cc3ccccc3)nc2c1 , result: > 6.30

----------
- System: SH-SY5Y M-currents (KCNQ2, KCNQ3 and KCNQ5)
- TEST_METHOD_NOTES: SH-SY5Y native cell line FLIPR assay (voltage-sensitive dye DiBAC)
- Type: cell-based, mouse neuroblastoma, rat glioma hybrid cell line
- CONDITION_DETAILS: FLIPR assay, SH-SY5Y native cell line; Table 2; read-out: SH-SY5Y EC50
pEC50: −log10 of the molar value.
METRIC_NAME: pEC50

// pEC50 lookup, molecule = CC(C)C(C)C(=O)Nc1nc2ccc(F)cn2c1-c1cccc(Cl)c1 (centres unmarked) , result: > 6.30

// pEC50 lookup, molecule = CC(C(=O)Nc1nc2ccc(F)cn2c1-c1ccc(C(F)(F)F)cc1)C(C)(C)C (centres unmarked) , result: > 6.30

// pEC50 lookup, molecule = CC(CC(=O)Nc1nc2ccc(F)cn2c1-c1ccc(OC(F)(F)F)c(F)c1)C(F)(F)F (centres unmarked) , result: > 6.30

// pEC50 lookup, molecule = O=C(CC1CCCC1)Nc1nc2ccc(F)cn2c1-c1ccccc1 , result: > 6.30

// pEC50 lookup, molecule = CC(C)C(C)C(=O)Nc1nc2ccc(F)cn2c1-c1cccc(OC(F)(F)F)c1 (centres unmarked) , result: > 6.30

// pEC50 lookup, molecule = CC(CC(=O)Nc1nc2ncc(Cl)cn2c1-c1ccc(C(F)(F)F)cc1)C(F)(F)F (centres unmarked) , result: 5.52 to 6.30

// pEC50 lookup, molecule = O=C(CCc1ccccc1)Nc1nc2ccc(F)cn2c1-c1ccc(F)cc1 , result: 5.52 to 6.30

// pEC50 lookup, molecule = Cc1ccc2nc(NC(=O)CC(C)(C)C)c(-c3cccc(C(F)(F)F)c3)n2n1 , result: > 6.30

// pEC50 lookup, molecule = COc1ccc(CC(=O)Nc2nc3ccc(F)cn3c2-c2ccc(F)cc2)cc1 , result: 5.52 to 6.30

// pEC50 lookup, molecule = O=C(Cc1ccc(F)cc1)Nc1nc2ccc(F)cn2c1-c1cccc(C(F)(F)F)c1 , result: > 6.30

// pEC50 lookup, molecule = CC1(CC(=O)Nc2nc3ccc(F)cn3c2-c2ccc(C(F)(F)F)cc2)CCCC1 , result: > 6.30

// pEC50 lookup, molecule = COc1ccn2c(-c3ccc(C(F)(F)F)cc3)c(NC(=O)Cc3ccccc3)nc2c1 , result: 5.52 to 6.30

// pEC50 lookup, molecule = O=C(Nc1nc2ccc(F)cn2c1-c1ccc(OC(F)(F)F)cc1)[C@H]1CCCO1 , result: 5.00 to 5.52

// pEC50 lookup, molecule = O=C(NCCc1ccc(F)cc1)Nc1nc2ccc(F)cn2c1-c1ccc(C(F)(F)F)cc1 , result: 5.00 to 5.52

// pEC50 lookup, molecule = COc1ccc(-c2c(NC(=O)CC(C)(C)C)nc3ccc(F)cn23)cc1C(F)(F)F , result: > 6.30

// pEC50 lookup, molecule = O=C(Nc1nc2ccc(F)cn2c1-c1ccc(OC(F)(F)F)c(F)c1)C1CCC1 , result: 5.52 to 6.30

// pEC50 lookup, molecule = CC(C)(C)[C@H](O)C(=O)Nc1nc2ccc(F)cn2c1-c1ccc(C(F)(F)F)cc1 , result: 5.52 to 6.30
